Quick record: pIC50, sorbitol dehydrogenase (Homo sapiens).
Recall that pIC50 is obtained by taking minus log10 of the concentration measured in molar.

1. O=C1O[C@H]([C@@H](O)CO)C(O)=C1O [Ascorbic Acid]	3.47

Ask: Param item = C=CC(C)(O)CCC=C(C)C (centres unmarked) [Linalool] ; retrieve measured pIC50.
Reply: 3.24

---

Quick record: IC50, aldose reductase (Homo sapiens, UniProt P15121).

1. C=CC(C)(O)CCC=C(C)C (centres unmarked)	383 µM

Consider the additional compound presented here.
Ask: Notebook entry, aldose reductase (Homo sapiens, UniProt P15121) assay: IC50 of O=C1O[C@H]([C@@H](O)CO)C(O)=C1O = ?
Reply: 163 µM

Just for reference, paper PMC10215355 is where these values come from.
